# SYSTEM_NAME: pneumolysin (Ply) (Streptococcus pneumoniae serotype 2, UniProt Q04IN8)
# Construct: made in house; host or cells: E. coli BL21(DE3)
# Sequence (Q04IN8 whole entry): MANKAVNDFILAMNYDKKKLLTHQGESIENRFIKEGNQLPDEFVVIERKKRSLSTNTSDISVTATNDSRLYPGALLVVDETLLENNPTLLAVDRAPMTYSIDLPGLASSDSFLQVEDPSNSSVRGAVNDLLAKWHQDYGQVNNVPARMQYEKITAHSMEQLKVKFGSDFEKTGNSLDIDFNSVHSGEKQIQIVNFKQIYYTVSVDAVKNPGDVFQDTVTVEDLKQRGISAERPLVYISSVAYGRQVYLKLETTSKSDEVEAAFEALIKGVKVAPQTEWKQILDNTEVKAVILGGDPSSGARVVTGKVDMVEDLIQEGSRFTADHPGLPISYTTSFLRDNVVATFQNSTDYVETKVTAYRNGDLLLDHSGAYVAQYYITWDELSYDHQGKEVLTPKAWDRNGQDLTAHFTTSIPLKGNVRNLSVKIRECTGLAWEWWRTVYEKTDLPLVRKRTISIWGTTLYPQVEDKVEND
# PROTOCOL_TEXT: cell-based
# Format: cell-based
# CONDITION_CONTEXT: IC50 (screening with hemolysis assays), estimated from the inhibition curves, two-fold dilutions of tannins
ENDPOINT: pIC50
Numbers only, as −log10 of the molar value.

Known pIC50 results, listed for orientation:
| MOLECULE | NUMBER |
| --- | --- |
| O=C(O[C@@H]1O[C@@H]2COC(=O)c3cc(O)c(O)c(O)c3-c3c(cc(O)c(O)c3O)C(=O)O[C@H]2[C@H](OC(=O)c2cc(O)c(O)c(O)c2)[C@H]1OC(=O)c1cc(O)c(O)c(O)c1)c1cc(O)c(O)c(Oc2c(C(=O)O[C@H]3O[C@@H]4COC(=O)c5cc(O)c(O)c(O)c5-c5c(cc(O)c(O)c5O)C(=O)O[C@H]4[C@@H]4OC(=O)c5cc(O)c(O)c(O)c5-c5c(cc(O)c(O)c5O)C(=O)O[C@@H]34)cc(O)c(O)c2O)c1 | 7.70 |
| O=C1O[C@H]2[C@@H]3OC(=O)c4cc(O)c(O)c(O)c4-c4c(cc(O)c(O)c4O)C(=O)OC[C@H]2O[C@@H](OC(=O)c2cc(O)c(O)c(O)c2)[C@@H]3OC(=O)c2cc(O)c(O)c3c2[C@@H]2C1=CC(=O)[C@](O)(O3)C2(O)O | 7.00 |
| O=C(O[C@H]1[C@@H]2OC(=O)c3cc(O)c(O)c(O)c3-c3c(cc(O)c(O)c3O)C(=O)OC[C@H]2OC(O)[C@@H]1OC(=O)c1cc(O)c(O)c(O)c1)c1cc(O)c(O)c(O)c1 (some centres unmarked) | 7.22 |
| O=C1OC[C@H]2OC(=O)c3cc(O)c(O)c(O)c3-c3c(O)c(O)c(O)c4c3C(=O)O[C@H]([C@H]3OC(=O)c5c-4c(O)c(O)c(O)c5[C@H]3O)[C@@H]2OC(=O)c2cc(O)c(O)c(O)c2-c2c1cc(O)c(O)c2O | 7.10 |

Then there is this molecule:
Suppose we examine the molecule `O=C(O[C@@H]1COC(=O)c2cc(O)c(O)c(O)c2-c2c(cc(O)c(O)c2O)C(=O)O[C@H]1[C@@H]1OC(=O)c2cc(O)c(O)c(O)c2-c2c(O)c(O)c(O)c3c2C(=O)O[C@H]1[C@@H]3O)c1cc(O)c(O)c(O)c1` ; what pIC50 value has been reported?
7.05

Values were extracted from paper PMC7766327.
